These measurements were taken from the supplement of paper PMC12855868.

B1: library; numbered along this chain (parent)
chain: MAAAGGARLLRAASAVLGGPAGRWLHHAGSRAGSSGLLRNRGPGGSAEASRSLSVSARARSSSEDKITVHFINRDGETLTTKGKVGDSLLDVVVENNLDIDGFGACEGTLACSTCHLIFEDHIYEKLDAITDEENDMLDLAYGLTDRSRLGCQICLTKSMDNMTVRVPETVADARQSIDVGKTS

# Variants of: B1
# ASSAY: scaled log2 fold change in cell abundance, elesclomol vs control (0 = silent mean, 1 = nonsense mean) (scaled log2 ratio); higher = higher viability under elesclomol (loss of FDX1 cuproptosis function);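 further: variant abundance is its share of total variant reads in each endpoint sample, from next-generation sequencing of the integrated ORF PCR-amplified out of genomic DNA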
# CONDITIONS: with ABC1 FDX1 KO; elesclomol 5 nM; glucose 10 mM; 14 days
REPORTED_ENDPOINT: scaled log2 fold change
# print the numeric value only

[
  {
    "MUTATION_NAME": "P168C",
    "MEASURED": 0.163
  }
]

[ask] Determine its reported scaled log2 fold change: `G104Y`
[reply] 0.933

[ask] Specify reported scaled log2 fold change for the variant shown: `H70S`
[reply] 0.277

[ask] For the variant `I67A` , report scaled log2 fold change.
[reply] 0.473

[ask] Please report scaled log2 fold change for the following variant: `H70V`
[reply] 0.191

[ask] Assign scaled log2 fold change to the following record: `L127I`
[reply] 0.0723

[ask] Return scaled log2 fold change for the following variant: `R8S`
[reply] 0.0501

[ask] Indicate its recorded scaled log2 fold change; the variant in question is `S14G`
[reply] 0.603

[ask] Supply measured scaled log2 fold change of `D179V` in your reply.
[reply] -0.0481

[ask] # return recorded scaled log2 fold change for input `G86E`
[reply] 0.115

[ask] Give the value of scaled log2 fold change reported for the following: `T109Q`
[reply] -0.041

[ask] Note down scaled log2 fold change recorded for `G83R`
[reply] 0.756
